Data origin: patent US7423159B2

Reported melting point values for a set of compounds
Property measured: melting point

INSERT INTO results (compound, property_measured, endpoint_result) VALUES
  ('CCOP(=O)(Cc1ccc(NC(=O)/C=C/c2cnn(C)c2-c2ccco2)cc1)OCC', 'melting point', '195 to 196 °C'),
  ('Cn1nnc(Cc2ccc(NC(=O)/C=C/c3cnn(C)c3-c3ccc(F)cc3)cc2)n1', 'melting point', '159 to 161 °C'),
  ('Cn1ncc(/C=C/C(=O)Nc2ccc(Cn3ccnc3)cc2)c1-c1ccc(F)cc1', 'melting point', '213 to 214 °C'),
  ('Cn1ncc(/C=C/C(=O)Nc2ccc(CC3SC(=O)NC3=O)cc2)c1-c1ccc(F)cc1 (stereo not shown)', 'melting point', '149 to 150 °C'),
  ('CCOP(=O)(Cc1ccc(NC(=O)/C=C/c2cncn2-c2ccc(F)cc2)cc1)OCC', 'melting point', '165 to 166 °C'),
  ('Cn1ncc(/C=C/C(=O)Nc2ccc(Cn3cc4ccccc4n3)cc2)c1-c1ccc(F)cc1', 'melting point', '231 to 232 °C'),
  ('CCn1nnc(Cc2ccc(NC(=O)/C=C/c3cnn(C)c3-c3ccc(F)cc3)cc2)n1', 'melting point', '187 to 188 °C'),
  ('CCC(O)(CC)Cc1ccc(NC(=O)/C=C/c2cnn(C)c2-c2ccc(F)cc2)cc1', 'melting point', '150 to 151 °C'),
  ('Cn1ncc(/C=C/C(=O)Nc2ccc(CSc3ccccc3)cc2)c1-c1ccc(F)cc1', 'melting point', '197 to 198 °C'),
  ('Cc1nnc(Cc2ccc(NC(=O)/C=C/c3cnn(C)c3-c3ccc(F)cc3)cc2)o1', 'melting point', '151 to 152 °C'),
  ('CCOP(=O)(Cc1cccc(NC(=O)/C=C/c2cnn(C)c2-c2ccc(F)cc2)c1)OCC', 'melting point', '170 to 172 °C'),
  ('CSc1ccc(NC(=O)/C=C/c2cnn(C)c2-c2ccc(F)cc2)cc1', 'melting point', '164 to 165 °C'),
  ('Cn1ncc(/C=C/C(=O)Nc2ccc(CS(=O)(=O)c3ccccc3)cc2)c1-c1ccc(F)cc1', 'melting point', '223 to 224 °C'),
  ('COc1ccc(-c2c(/C=C/C(=O)Nc3ccc(CP(=O)(OC)OC)cc3)cnn2C)cc1', 'melting point', '199 to 200 °C'),
  ('CCc1nnc(Cc2ccc(NC(=O)/C=C/c3cnn(C)c3-c3ccc(F)cc3)cc2)o1', 'melting point', '164 to 165 °C'),
  ('CCOP(=O)(Cc1ccccc1NC(=O)/C=C/c1cnn(C)c1-c1ccc(F)cc1)OCC', 'melting point', '168 to 169 °C'),
  ('Cn1ncc(/C=C/C(=O)Nc2ccc(CCn3ccnc3)cc2)c1-c1ccc(F)cc1', 'melting point', '160 to 162 °C'),
  ('CCOP(=O)(Cc1ccc(NC(=O)/C=C/c2cnn(C)c2-c2ccc(Br)cc2)cc1)OCC', 'melting point', '229 to 231 °C'),
  ('CCOC(=O)Cc1ccc(NC(=O)CCc2cnn(-c3ccccc3)c2-c2ccccc2)cc1', 'melting point', '143 to 144 °C'),
  ('Cn1ncc(/C=C/C(=O)Nc2ccc(S(N)(=O)=O)cc2)c1-c1ccc(F)cc1', 'melting point', '300 to 305 °C (dec.)'),
  ('COP(=O)(Cc1ccc(NC(=O)/C=C/c2cnn(C)c2-c2ccc(C)cc2)cc1)OC', 'melting point', '207 to 209 °C'),
  ('CCn1nc(Cc2ccc(NC(=O)/C=C/c3cnn(C)c3-c3ccc(F)cc3)cc2)oc1=O', 'melting point', '149 to 150 °C'),
  ('CCOP(=O)(Cc1ccc(NC(=O)/C=C/c2cnn(CC)c2-c2ccc(F)cc2)cc1)OCC', 'melting point', '226 to 227 °C'),
  ('CC(C)C(=O)NCc1ccc(NC(=O)/C=C/c2cnn(C)c2-c2ccc(F)cc2)cc1', 'melting point', '258 to 259 °C'),
  ('Cn1ncc(/C=C/C(=O)Nc2ccc(C[S+]([O-])c3ccccc3)cc2)c1-c1ccc(F)cc1 (stereo not shown)', 'melting point', '236 to 237 °C'),
  ('Cn1ncc(/C=C/C(=O)Nc2ccc(Cn3cnnn3)cc2)c1-c1ccc(F)cc1', 'melting point', '233 to 234 °C'),
  ('Cn1ncc(/C=C/C(=O)Nc2ccc(CCc3nnco3)cc2)c1-c1ccc(F)cc1', 'melting point', '177 to 178 °C'),
  ('CCc1coc(Cc2ccc(NC(=O)/C=C/c3cnn(C)c3-c3ccc(F)cc3)cc2)n1', 'melting point', '174 to 175 °C'),
  ('CCOP(=O)(Cc1ccc(NC(=O)/C=C/c2cnn(C)c2-c2ccccc2)cc1)OCC', 'melting point', '239 to 240 °C'),
  ('Cn1ncc(/C=C/C(=O)Nc2ccc(Cc3n[nH]c(=O)o3)cc2)c1-c1ccc(F)cc1', 'melting point', '262 to 263 °C'),
  ('Cn1ncc(/C=C/C(=O)Nc2ccc(CSC(C)(C)C)cc2)c1-c1ccc(F)cc1', 'melting point', '166 to 168 °C'),
  ('CCOP(=O)(OCC)c1ccc(NC(=O)/C=C/c2cnn(C)c2-c2ccc(F)cc2)cc1', 'melting point', '174 to 176 °C'),
  ('Cn1nnnc1Cc1ccc(NC(=O)/C=C/c2cnn(C)c2-c2ccc(F)cc2)cc1', 'melting point', '243 to 244 °C'),
  ('COP(=O)(Cc1ccc(NC(=O)/C=C/c2cnn(C)c2-c2ccccc2F)cc1)OC', 'melting point', '220 to 221 °C');
